- System: Con A-stimulated mouse T cell proliferation
- MEASUREMENT DESCRIPTION: T cell proliferation suppression test
- Type: cell-based
- CONDITION: Con A-stimulated Balb/c thymus T lymphocytic cells, 3H thymidine uptake
MEASURED PROPERTY: IC50 (µM)
Report the value in µM with no unit label.

Fill in reported IC50 for this entry: CCCCCCCC1(CC[C@@H]2[C@@H](C/C=C\CCCC(=O)OC(C)C)[C@@H](O)C[C@H]2O)OCCO1 [Compound A]
6.3

---

- Tested on: transcription factor NFAT-1
- MEASUREMENT DESCRIPTION: NF-AT gene transcription suppression test (lac Z reporter, Jurkat cells)
- Format: cell-based
- CONDITION: Homo sapiens, lac Z under NFAT-1 site, A23187 + PMA, β-galactosidase activity
MEASURED PROPERTY: pIC50
Value format note: pIC50 is -log10 of concentration (mol/L); just state the number.

Return pIC50 for the following compound: CCCCCCCC1(CC[C@@H]2[C@@H](C/C=C\CCCC(=O)OC(C)C)[C@@H](O)C[C@H]2O)OCCO1 [Compound A]
5.88

---

- Tested on: LPS-stimulated mouse B cell proliferation
- MEASUREMENT DESCRIPTION: B cell proliferation suppression test
- Type: cell-based
- CONDITION: LPS-stimulated Balb/c spleen B lymphocytic cells, 3H thymidine uptake
MEASURED PROPERTY: pIC50
The meaning of pIC50 here: minus log10 of the concentration in molar units.

Please give measured pIC50 of the following entry: CCCCCCCC1(CC[C@@H]2[C@@H](C/C=C\CCCC(=O)OC(C)C)[C@@H](O)C[C@H]2O)OCCO1
5.03

---

- System: transcription factor NF-κB
- MEASUREMENT DESCRIPTION: NF-κB gene transcription suppression test (lac Z reporter, Jurkat cells)
- Format: cell-based
- CONDITION: Homo sapiens, lac Z under NF-κB site, A23187 + PMA, β-galactosidase activity
MEASURED PROPERTY: IC50 (nM)
Express your answer in nM, writing the number without its unit.

Tell me IC50 reported for CCCCCCCC1(CC[C@@H]2[C@@H](C/C=C\CCCC(=O)OC(C)C)[C@@H](O)C[C@H]2O)OCCO1 [Compound A]
1330

// provenance: patent US20140212441A1
